Target: UniProt P49662
Sequence (P49662 81-270 limits assumed): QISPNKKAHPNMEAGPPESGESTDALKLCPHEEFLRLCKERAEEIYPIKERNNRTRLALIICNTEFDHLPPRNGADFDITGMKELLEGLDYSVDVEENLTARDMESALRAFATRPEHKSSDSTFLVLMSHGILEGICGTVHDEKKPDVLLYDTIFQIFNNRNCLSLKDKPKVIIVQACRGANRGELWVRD
Sequence (P49662 290-377 limits assumed): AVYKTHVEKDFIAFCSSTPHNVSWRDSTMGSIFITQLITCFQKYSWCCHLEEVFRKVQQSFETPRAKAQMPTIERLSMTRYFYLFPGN
Entries whose IC50 is below 5 µM take met; entries at or above 5 µM take not met.

compound	assigned.category
CCOC1OC(=O)CC1NC(=O)C(CC(=O)NCCc1cn(C)c2ccccc12)C(C)C (stereo not shown)	not met

*Q* Please determine if CC(C)C(CC(=O)NCCCc1cccnc1)C(=O)NC(CC(=O)O)C(=O)CNS(=O)(=O)CC12CCC(CC1=O)C2(C)C (stereo not shown) is below 5 µM in terms of IC50.
*A* met

*Q* Could you do the same for CC(C)C(CC(=O)NCCCc1ccc2ccccc2n1)C(=O)NC(CC(=O)O)C(=O)CNS(=O)(=O)CC12CCC(CC1=O)C2(C)C (stereo not shown) , please?
*A* not met

*Q* Could you do the same for Cc1cccc2c(CCNC(=O)CC(C(=O)NC(CC(=O)O)C(=O)CNS(=O)(=O)CC34CCC(CC3=O)C4(C)C)C(C)C)c[nH]c12 (stereo not shown) , please?
*A* met

====

Molecular target: ICE (Homo sapiens)
Sequence (P29466 120-297 limits assumed): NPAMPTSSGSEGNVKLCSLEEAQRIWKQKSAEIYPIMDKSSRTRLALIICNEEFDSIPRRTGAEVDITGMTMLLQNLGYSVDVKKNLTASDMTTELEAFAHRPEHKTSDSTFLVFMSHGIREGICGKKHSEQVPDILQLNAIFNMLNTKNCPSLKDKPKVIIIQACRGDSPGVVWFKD
Sequence (P29466 317-404 limits assumed): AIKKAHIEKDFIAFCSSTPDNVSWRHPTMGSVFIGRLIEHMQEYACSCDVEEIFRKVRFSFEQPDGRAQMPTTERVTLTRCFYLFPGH
Assay: ICE Colorimetric Dose-Response (IC50) Assay
Format: biochemical
Settings: 60 minutes preincubation, 50 µM Ac-Tyr-Val-Ala-Asp-pNA, 25°C
pIC50: −log10 of the molar value.
Would you please tag the item satisfied when its pIC50 is 8 or above, and not satisfied when it is below?

Examples from the recorded data:
molecule	assigned.category
CC(C)[C@H](CC(=O)NCCn1cnc2cc(Cl)c(Cl)cc21)C(=O)NC(C=O)CC(=O)O (stereo partly shown)	not satisfied
CC(C)C(CC(=O)NCCc1c[nH]c2ccccc12)C(=O)NC(CC(=O)O)C(=O)CNS(=O)(=O)CC12CCC(CC1=O)C2(C)C (stereo not shown)	satisfied
CC(C)C(CC(=O)NCCCc1ccccc1)C(=O)NC(CC(=O)O)C(=O)CNS(=O)(=O)CC12CCC(CC1)C2(C)C (stereo not shown)	not satisfied
CC(C)C(CC(=O)NCCn1nnc2ccccc21)C(=O)NC(C=O)CC(=O)O (stereo not shown)	not satisfied
CC(C)C(CC(=O)NCCc1ccccc1)C(=O)NC(CC(=O)O)C(=O)CSCCCc1ccccc1 (stereo not shown)	not satisfied

Switching to the query record.
*Q* Is the recorded value of pIC50 equal to or greater than 8 for this molecule? CCOC1OC(=O)CC1NC(=O)C(CC(=O)NCCn1nnc2ccccc21)C(C)C (stereo not shown)
*A* not satisfied
